- EXPERIMENTAL_PROTOCOL: endothelial E-selectin expression blockers – imaging, HUVEC, immunofluorescence, MLSMR starter and 10KST1 sets, primary screen (AID 487);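 also: 100% = median nuclei count of all wells on the same plate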
- CONDITION_SET: HUVEC TNFalpha-induced E-selectin immunofluorescence imaging, at 2 µM; measured here: cell number, toxicity
Measured nuclei count accompanies every entry in the list below.
The figure you give is taken to be in %; do not add the unit.

COMPOUND	nuclei count / %
CCOC(=O)Nc1ccc2c(c1)N(C(=O)CN(CC)CC)c1ccccc1C=C2	119

Entry under review: CCCOC(=O)C1[C@H]2C(=O)N(CCCOC)C[C@]23C=C[C@H]1O3 (stereo partly specified) . Reported nuclei count?
118

----------
- EXPERIMENTAL_PROTOCOL: blockers of RIG-like receptor reporter activation – cell-based, Sendai virus stimulus, luciferase, 10K MLSCN set, TLR/RLR signaling modifier project, primary screen (AID 602276);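 also: firefly luciferase from ISG56 promoter only with Renilla not read in this screen; 0% = Sendai virus plus DMSO and 100% = medium plus DMSO without virus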
- CONDITION_SET: HEK293 RL24 IRF3 luciferase reporter, at 10 µM, stronger effect = higher value
Calls of active or inactive are those of the source.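 How the source made its calls: active means inhibition at or above 50% at 10 µM; inactive means inhibition below 50%.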
ASSAY_ENDPOINT: inhibition

MOLECULE	inhibition
Cc1cnc(C(=O)Nc2ccc(N3CCOCC3)cc2)cn1	-19.8% (inactive)
O=C(CCCN1C(=O)c2ccccc2C1=O)NCc1cccnc1	8.03% (inactive)
CNC(=O)CSc1nnc(-c2cccc(S(=O)(=O)N3CCOCC3)c2)n1-c1ccc(F)cc1	6.45% (inactive)
Cc1cccc(NC(=O)c2cnc3sccn3c2=O)n1	-25.6% (inactive)
Cn1c(-c2ccccc2)c(CCO)c2ccccc21	6.84% (inactive)

Moving on to the next molecule.
What measured inhibition goes with O=C(NCCCN1CCOCC1)c1cc(-c2ccc(Cl)cc2)on1 ?
6.84% (inactive)

----------
Measured nuclei count accompanies every entry in the list below.
- EXPERIMENTAL_PROTOCOL: reduction of polyQ htt aggregates in cells – imaging, exon1htt(103Q)mCFP cells, high-content imaging, primary screen (AID 483);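 also: compound exposure lasted 3 days before fixation; percent of the per-plate median nuclei count of sample wells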
- CONDITION_SET: exon1htt(103Q)mCFP cell line, aggregate imaging, at 2 µM; measured here: cell count, toxicity
Note: unit % is implicit; provide only the numeric part.

MOLECULE	DATA_VALUE
COc1cccc(-n2c(CNc3ccc(F)cc3)nnc2SCC(N)=O)c1	113
COc1ccc(C2CC(=O)c3c(C)nc(N4CCN(c5ccccc5)CC4)nc3C2)cc1 (centres undefined)	109

Then this molecule:
Value lookup for nuclei count; key = COc1ccc(C(c2sc3nc(C)nn3c2O)N2CCCCC2)cc1 (centres undefined)
114

----------
- SYSTEM_TESTED: Muscarinic acetylcholine receptor M4 (Homo sapiens)
- EXPERIMENTAL_PROTOCOL: M4-linked GIRK flux change, two-sided – cell-based, HEK293 M4/GIRK, thallium flux, BTC-AM, M4 allosteric agonist project, primary screen (AID 625);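 also: thallium influx through GIRK channels coupled to M4 in HEK293 cells with BTC-AM dye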
- CONDITION_SET: at 10 µM, actives lie on both sides
Would you please tag the item label 1 when its fluorescence slope is 0.007 or above, and label 0 when it is below?

Field: example entries. Status: answers known.
MOLECULE	LABEL_VALUE
COc1ccc(C(=O)CSc2nnc(CNc3ccc(C)cc3C)o2)cc1	label 0
CCOC(=O)c1cnc(-n2nc(C)cc2C)nc1NC(C)c1ccccc1 (stereo not given)	label 0
COC(=O)c1ccccc1NC(=O)C1CCCCC1C(=O)O (stereo not given)	label 0
COc1cc(CC(=O)NCc2ccc3c(c2)OCO3)cc(OC)c1OC	label 0
O=C(NC(C(=O)c1ccccc1)n1ccc(=O)[nH]c1=O)c1ccccc1 (stereo not given)	label 0
Cc1cc(C)n(-c2nc3ccccc3c(=O)n2OCCOc2ccccc2)n1	label 1
CCOC(=O)C(C)Sc1nc2c(cnn2-c2ccc(C)cc2)c(=O)[nH]1 (stereo not given)	label 0
CC(c1ccco1)N(C(=O)c1ccc(S(=O)(=O)N2CCCCC2)cc1)c1ccccn1 (stereo not given)	label 1

Kindly determine if fluorescence slope recorded for COc1ccc2c(C(F)(F)F)cc(=O)oc2c1C is above or exactly 0.007.
label 0
